The measured values listed here are drawn from patent US12371454B2.

# test.target: Kras and SOS1 (biotin-tagged human Kras loaded with GDP, His-tagged human SOS1) (Homo sapiens, UniProt P01116, G12D)
# Construct: made in house; host or cells: E. coli (stated for Kras only)
# Sequence (P01116 1-188 isoform P01116-2 G12D): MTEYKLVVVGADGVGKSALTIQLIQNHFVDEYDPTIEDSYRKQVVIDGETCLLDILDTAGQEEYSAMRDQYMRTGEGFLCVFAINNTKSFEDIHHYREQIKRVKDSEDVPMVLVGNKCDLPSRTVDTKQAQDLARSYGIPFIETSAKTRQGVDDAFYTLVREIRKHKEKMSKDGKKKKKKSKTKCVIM
# assay.comment: Protein-protein interaction inhibition between Kras and SOS1 (KrasGl2D-SOS PPI) using AlphaScreen
# Type: binding
# condition.notes: AlphaScreen; biotin-tagged human Kras loaded with GDP, His-tagged human SOS1; read-out: KRAS G12D-SOS PPI IC50
Positions of bridges follow the written chain, without caps; N, C: chain ends. Non-standard residues stand in square brackets, D forms with d. Residues, ends and D or L forms follow the SMILES beside them. *: point of attachment. hPhe(3-Cl-4-CF3) = N[C@@H](CCc1ccc(C(F)(F)F)c(Cl)c1)C(=O)O; hPhe(3-F,4-CF3) = N[C@@H](CCc1ccc(C(F)(F)F)c(F)c1)C(=O)O; NMeAla(cPent) = CN[C@@H](CC1CCCC1)C(=O)O; NMeNva(5,5-F2) = CN[C@@H](CCC(F)F)C(=O)O; NMeCha = CN[C@@H](CC1CCCCC1)C(=O)O; NMeChg = CN[C@H](C(=O)O)C1CCCCC1; NMeD = CN[C@@H](CC(=O)O)C(=O)O; NMeL = CN[C@@H](CC(C)C)C(=O)O; Chg = N[C@H](C(=O)O)C1CCCCC1; NMeV = CN[C@H](C(=O)O)C(C)C; d(β3hA) = C[C@@H](N)CC(=O)O; NMeA = CN[C@@H](C)C(=O)O; Piperidide = C1CCN(*)CC1; Ac5c = NC1(C(=O)O)CCCC1; Aze = O=C(O)[C@@H]1CCN1; Cyclopropyl = C1CC1*; Sar = CNCC(=O)O
Task for the reader: assign each of the following molecules its reported log10 of IC50.
Quick note: numbers are log10 of IC50, with nM as the unit.

CC(C)C[C@H]1C(=O)N[C@@H](COC2CC2)C(=O)N(C)CC(=O)N(C)CC(=O)N(C)[C@@H](CC2CCCCC2)C(=O)N(C)CC(=O)N[C@@H](CCc2ccc(C(F)(F)F)c(Cl)c2)C(=O)N2CCC[C@H]2C(=O)NC2(CCCC2)C(=O)N(C)[C@@H](C2CCCCC2)C(=O)N(C)[C@H](C(=O)N2CCCCC2)CC(=O)N1C [Compound 1766] ([NMeL]S(Cyclopropyl)[Sar][Sar][NMeCha][Sar][hPhe(3-Cl-4-CF3)]P[Ac5c][NMeChg][NMeD]-Piperidide; lactam N-11)
0.56
CC[C@H](C)[C@@H]1NC(=O)[C@H](CC(C)C)N(C)C(=O)C[C@@H](C(=O)N2CCCCC2)N(C)C(=O)[C@H](C2CCCCC2)N(C)C(=O)C2(CCCC2)NC(=O)[C@@H]2CCCN2C(=O)[C@H](CCc2ccc(C(F)(F)F)c(Cl)c2)NC(=O)CN(C)C(=O)[C@H](CCC(F)F)N(C)C(=O)CN(C)C(=O)CN(C)C1=O [Compound 1647] ([NMeL]I[Sar][Sar][NMeNva(5,5-F2)][Sar][hPhe(3-Cl-4-CF3)]P[Ac5c][NMeChg][NMeD]-Piperidide; lactam N-11)
0.48
CC[C@H](C)[C@@H]1NC(=O)[C@H](CC(C)C)N(C)C(=O)C[C@@H](C(=O)N2CCCCC2)N(C)C(=O)[C@H](C(C)C)N(C)C(=O)C2(CCCC2)NC(=O)[C@@H](C)NC(=O)[C@H](CCc2ccc(C(F)(F)F)c(Cl)c2)NC(=O)CN(C)C(=O)[C@H](CC2CCCCC2)N(C)C(=O)[C@@H]2CCN2C(=O)[C@H](C)N(C)C1=O [Compound 1314] ([NMeL]I[NMeA][Aze][NMeCha][Sar][hPhe(3-Cl-4-CF3)][dA][Ac5c][NMeV][NMeD]-Piperidide; lactam N-11)
1.95
CC(C)C[C@H]1C(=O)N[C@@H](C2CCCCC2)C(=O)N(C)CC(=O)N(C)CC(=O)N(C)[C@@H](CC2CCCCC2)C(=O)N(C)CC(=O)N[C@@H](CCc2ccc(C(F)(F)F)c(F)c2)C(=O)N2CCC[C@H]2C(=O)NC2(CCCC2)C(=O)N(C)[C@@H](CC(C)C)C(=O)N[C@H](C)CC(=O)N1C [Compound 1527] (cyclo([Ac5c][NMeL][d(β3hA)][NMeL][Chg][Sar][Sar][NMeCha][Sar][hPhe(3-F,4-CF3)]P))
2.28

# context switch: different molecule, same log10 of IC50
QUERY: // query log10 of IC50 value for entry CC[C@H](C)[C@@H]1NC(=O)[C@H](CC(C)C)N(C)C(=O)C[C@@H](C(=O)N2CCCCC2)N(C)C(=O)[C@H](C(C)C)N(C)C(=O)C2(CCCC2)NC(=O)[C@@H]2CCCN2C(=O)[C@H](CCc2ccc(C(F)(F)F)c(Cl)c2)NC(=O)CN(C)C(=O)[C@H](CC2CCCCC2)N(C)C(=O)[C@@H]2CCN2C(=O)[C@H](CC2CCCC2)N(C)C1=O [Compound 1552] ([NMeL]I[NMeAla(cPent)][Aze][NMeCha][Sar][hPhe(3-Cl-4-CF3)]P[Ac5c][NMeV][NMeD]-Piperidide; lactam N-11)
RESULT: 1.79
